Test system: HSV-1
Assay: HSV-1 replication in infected Vero 76 cells, viral DNA hybridization capture assay
Assay type: cell-based
Settings: Human alphaherpesvirus 1, Vero 76, HSV-1, Vero 76 cells, MOI=0.001, 40–48 hours incubation
Protocol: Vero 76 cells were maintained in MEM with Earle's salts, L-glutamine, 8% FBS (Hyclone, A-1111-L) and 100 units/mL Penicillin-100 μg/mL Streptomycin. For assay conditions, FBS was reduced to 2%. […] For the detection probe, a gel-purified, digoxigenin-labeled, […] PCR fragment of the HSV UL-15 sequence was utilized. […] Primers were selected to amplify a 728 bp probe spanning a section of the HSV1 UL15 open reading frame (nucleotides 249–977). […]
Property: IC50 (nM)

(P) CSc1cccc2c(-c3cc(NC4CCCC4)ncn3)c(-c3ccc(F)cc3)nn12
(Q) CCCCNc1nccc(-c2c(-c3ccc(F)cc3)nn3c(NC4CC4)cccc23)n1
Prompt: Select one: P or Q . Criterion: greater recorded IC50. Which one? Tell me its label.
Response: P
